Values from paper PMC10887108

protocol_description: Plasma pharmacokinetics after oral dosing
Format: in vivo, CD-1 mice
assay_context: mouse, 100 mg/kg oral, CD-1 male mice
measure: half-life (h)
Answers are plain numbers, in h.

Form: compound = CO[C@H]1C[C@@H](C(=O)NC(=O)Nc2ccc(Oc3ccc(Cl)cn3)c(C)c2)C1 [RGN3067] ; half-life = 3.61
